Sourced from patent US12173088B2

Experiment: Hemolytic assay
Assay type: cell-based, human
Conditions: human, human red blood cells, 2% (v/v)
Peptide text beside a SMILES is read from it.
outcome.measure: HC50 at 1 h (µM)
One number for each entry, in µM.

INSERT INTO results (molecule, outcome_measure, observed_value) VALUES
  ('CC[C@H](C)[C@H](NC(=O)[C@H](CCCCN)NC(=O)[C@@H](N)CCCNC(=N)N)C(=O)N[C@@H](Cc1c[nH]c2ccccc12)C(=O)N[C@@H](Cc1c[nH]c2ccccc12)C(=O)N[C@@H](Cc1c[nH]c2ccccc12)C(=O)N[C@@H](Cc1c[nH]c2ccccc12)C(=O)N[C@@H](CC(C)C)C(N)=O [WW295, RKIWWWWL] (H-RKIWWWWL-NH2; N-terminus and C-terminus assumed)', 'HC50 at 1 h', 57);

For the next question, use this molecule.
// lookup HC50 at 1 h for CC(C)C[C@H](NC(=O)[C@H](Cc1c[nH]c2ccccc12)NC(=O)[C@H](Cc1c[nH]c2ccccc12)NC(=O)[C@H](Cc1c[nH]c2ccccc12)NC(=O)[C@H](Cc1c[nH]c2ccccc12)NC(=O)[C@H](CCCNC(=N)N)NC(=O)[C@H](CCCNC(=N)N)NC(=O)[C@@H](N)CCCNC(=N)N)C(N)=O [WW306, RRRWWWWL] (H-RRRWWWWL-NH2; N-terminus and C-terminus assumed)
60
